Source listed as patent US20180265515A1.

measured target: isolated recombinant JAK1 kinase domain (Homo sapiens, UniProt P23458)
Construct: The activity of the isolated recombinant JAK1 and JAK2 kinase domain was measured
Sequence (P23458 875-1153 limits assumed): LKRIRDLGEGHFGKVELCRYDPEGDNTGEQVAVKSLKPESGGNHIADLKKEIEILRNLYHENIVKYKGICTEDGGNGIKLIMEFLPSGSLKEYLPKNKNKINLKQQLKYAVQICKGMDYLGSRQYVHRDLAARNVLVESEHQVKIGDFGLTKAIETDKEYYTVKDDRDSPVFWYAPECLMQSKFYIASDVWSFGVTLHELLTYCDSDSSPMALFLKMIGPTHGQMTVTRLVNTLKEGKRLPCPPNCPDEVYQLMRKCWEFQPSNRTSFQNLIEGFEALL
test details: JAK1 enzyme assay (Caliper LabChip, Ki)
Type: biochemical
experimental setup: 25 μM ATP; Morrison tight binding model
attribute measured: Ki (nM)

These solved cases illustrate the format of a correct answer.
CC(C)(O)Cn1cc(NC(=O)c2cnn3cccnc23)c(-c2cc(Cl)ccc2OC(F)F)n1 [B, reference compound] :: 0.4
CSc1ccc(OC(F)F)c(-c2nn(CC(=O)N3CCC(CN4CCN(CC(=O)N(C)C)CC4)CC3)cc2NC(=O)c2cnn3cccnc23)c1 :: 0.31
Cn1cc(NC(=O)c2cnn3cccnc23)c(-c2cc(SC3COC3)ccc2OC(F)F)n1 :: 0.29
CC(C)Sc1ccc(OC(F)F)c(-c2nn(C)cc2NC(=O)c2cnn3cccnc23)c1 :: 0.25

A. CSc1ccc(OC(F)F)c(-c2nn(CC(=O)N3CCC(N4CCOCC4)CC3)cc2NC(=O)c2cnn3cccnc23)c1
B. CSc1ccc(OC(F)F)c(-c2nn(C)cc2NC(=O)c2cnn3cccnc23)c1
# input Which one would you say has the larger Ki value: A , or B ? I would appreciate it if you answered with the label of your choice.
# output A
